Items are presented alongside their recorded koff.
- assayed_system: T1, recombinant human VEGF165 (human, UniProt P15692-4 27-191)
- T1 construct: also called hVEGF165; rhVEGF165
- T1 sequence (P15692 other isoform, or with tags, fused parts or gaps limits assumed): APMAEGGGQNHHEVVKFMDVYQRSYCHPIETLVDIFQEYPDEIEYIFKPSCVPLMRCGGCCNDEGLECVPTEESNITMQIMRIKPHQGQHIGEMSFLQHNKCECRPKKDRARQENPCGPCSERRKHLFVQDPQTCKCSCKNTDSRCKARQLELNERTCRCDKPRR
- experimental_protocol: kd1; SPR Biacore T100, hVEGF165 on chip, Two State Reaction model
Express your answer as a number followed by its unit.

Example entries begin here.
INSERT INTO assay_data (binder, val) VALUES
  ('VEGFBII023 (VHH, biparatopic bivalent VHH in one chain; also called VEGFBII23B04-40GS-10E07; VEGFBI023) EVQLVESGGGLVQTGDSLRLSCEVSGRTFSSYSMGWFRQAQGKEREFVVAISKGGYKYDSVSLEGRFTISKDNAKNTVYLQINSLKPEDTAVYYCASSRAYGSSRLRLADTYEYWGQGTQVTVSSGGGGSGGGGSGGGGSGGGGSGGGGSGGGGSGGGGSGGGGSEVQLVESGGGLVQAGGSLRLSCAASGRTFSNYAMGWFRQAPGKERVLVADISSSGINTYVADAVKGRFTISRDNAKNTVYLQMNSLKPEDTAVYYCAASAWWYSQMARDNYRYWGQGTQVTVSS', '0.018 s⁻¹'),
  ('VEGFBII022 (VHH, biparatopic bivalent VHH in one chain; also called VEGFBII23B04-9GS-5B05) EVQLVESGGGLVQTGDSLRLSCEVSGRTFSSYSMGWFRQAQGKEREFVVAISKGGYKYDSVSLEGRFTISKDNAKNTVYLQINSLKPEDTAVYYCASSRAYGSSRLRLADTYEYWGQGTQVTVSSGGGGSGGGSEVQLVESGGGLVQPGGSLRLSCVASGIRFMSMAWYRQAPGKHRELVARISSGGTTAYVDSVKGRFTISRDNSKNTVYLQMNSLKAEDTAVYYCNTFSSRPNPWGAGTQVTVSS', '0.0091 s⁻¹'),
  ('VEGFBII021 (VHH, biparatopic bivalent VHH in one chain; also called VEGFBII23B04-40GS-5B05) EVQLVESGGGLVQTGDSLRLSCEVSGRTFSSYSMGWFRQAQGKEREFVVAISKGGYKYDSVSLEGRFTISKDNAKNTVYLQINSLKPEDTAVYYCASSRAYGSSRLRLADTYEYWGQGTQVTVSSGGGGSGGGGSGGGGSGGGGSGGGGSGGGGSGGGGSGGGGSEVQLVESGGGLVQPGGSLRLSCVASGIRFMSMAWYRQAPGKHRELVARISSGGTTAYVDSVKGRFTISRDNSKNTVYLQMNSLKAEDTAVYYCNTFSSRPNPWGAGTQVTVSS', '0.011 s⁻¹'),
  ('VEGFBII024 (VHH, biparatopic bivalent VHH in one chain; also called VEGFBII23B04-40GS-86H09; VEGFBI024) EVQLVESGGGLVQTGDSLRLSCEVSGRTFSSYSMGWFRQAQGKEREFVVAISKGGYKYDSVSLEGRFTISKDNAKNTVYLQINSLKPEDTAVYYCASSRAYGSSRLRLADTYEYWGQGTQVTVSSGGGGSGGGGSGGGGSGGGGSGGGGSGGGGSGGGGSGGGGSEVQLVESGGGLVQAGGSLRLSCTASGSAFKSYRMGWFRRTPGKEDEFVASISWTYGSTFYADSVKGRFTMSRDKAKNAGYLQMNSLKPEDTALYYCAAGAQSDRYNIRSYDYWGQGTQVTVSS', '0.013 s⁻¹'),
  ('VEGFBII025 (VHH, biparatopic bivalent VHH in one chain; also called VEGFBII10E07-40GS-23B04) EVQLVESGGGLVQAGGSLRLSCAASGRTFSNYAMGWFRQAPGKERVLVADISSSGINTYVADAVKGRFTISRDNAKNTVYLQMNSLKPEDTAVYYCAASAWWYSQMARDNYRYWGQGTQVTVSSGGGGSGGGGSGGGGSGGGGSGGGGSGGGGSGGGGSGGGGSEVQLVESGGGLVQTGDSLRLSCEVSGRTFSSYSMGWFRQAQGKEREFVVAISKGGYKYDSVSLEGRFTISKDNAKNTVYLQINSLKPEDTAVYYCASSRAYGSSRLRLADTYEYWGQGTQVTVSS', '0.017 s⁻¹');

# next binder below
Look up koff: VEGFBII010 (VHH, bivalent VHH in one chain; also called VEGFBII23B04-35GS-23B04; homodimeric VEGFBII23B04) EVQLVESGGGLVQTGDSLRLSCEVSGRTFSSYSMGWFRQAQGKEREFVVAISKGGYKYDSVSLEGRFTISKDNAKNTVYLQINSLKPEDTAVYYCASSRAYGSSRLRLADTYEYWGQGTQVTVSSGGGGSGGGGSGGGGSGGGGSGGGGSGGGGSGGGGSEVQLVESGGGLVQTGDSLRLSCEVSGRTFSSYSMGWFRQAQGKEREFVVAISKGGYKYDSVSLEGRFTISKDNAKNTVYLQINSLKPEDTAVYYCASSRAYGSSRLRLADTYEYWGQGTQVTVSS
0.017 s⁻¹
